property measured: Ki (nM)
# number only, unit nM dropped from output

input: Hello, I am looking for reported Ki with CYP2C8 (Homo sapiens, UniProt P10632) for CCc1cc2c(cc1N1CCC(N3CCOCC3)CC1)C(C)(C)c1[nH]c3cc(C#N)ccc3c1C2=O . Could you help?
output: 147

* * *

Assay: Vss after intravenous administration in healthy subjects (Morcos et al.)
Conditions: human, in vivo, 50 μg, 475 L normalized with 74.8 kg, read-out: Actual Vss
property measured: Vd (L/kg)
# number only, unit L/kg dropped from output

input: Quick check: Vd of CCc1cc2c(cc1N1CCC(N3CCOCC3)CC1)C(C)(C)c1[nH]c3cc(C#N)ccc3c1C2=O [alectinib] ?
output: 6.35
